assay: Toxicity in brine shrimp; assay type: organism-based; details: artemia, in vivo
measurementName: LC50 (µg/mL)
Provide the reading as a plain figure in µg/mL.

QUERY: Identify LC50 associated with the compound "CN1CCC[C@H]1CCCCCCCCCc1ccccc1"
RESULT: 1
